Experimental target: recombinant Antigen 1 (recombinant Ab1 target; recombinant integrin αvβ6 antigen)
Sequence (P06756 31-992, chain 1 of 2): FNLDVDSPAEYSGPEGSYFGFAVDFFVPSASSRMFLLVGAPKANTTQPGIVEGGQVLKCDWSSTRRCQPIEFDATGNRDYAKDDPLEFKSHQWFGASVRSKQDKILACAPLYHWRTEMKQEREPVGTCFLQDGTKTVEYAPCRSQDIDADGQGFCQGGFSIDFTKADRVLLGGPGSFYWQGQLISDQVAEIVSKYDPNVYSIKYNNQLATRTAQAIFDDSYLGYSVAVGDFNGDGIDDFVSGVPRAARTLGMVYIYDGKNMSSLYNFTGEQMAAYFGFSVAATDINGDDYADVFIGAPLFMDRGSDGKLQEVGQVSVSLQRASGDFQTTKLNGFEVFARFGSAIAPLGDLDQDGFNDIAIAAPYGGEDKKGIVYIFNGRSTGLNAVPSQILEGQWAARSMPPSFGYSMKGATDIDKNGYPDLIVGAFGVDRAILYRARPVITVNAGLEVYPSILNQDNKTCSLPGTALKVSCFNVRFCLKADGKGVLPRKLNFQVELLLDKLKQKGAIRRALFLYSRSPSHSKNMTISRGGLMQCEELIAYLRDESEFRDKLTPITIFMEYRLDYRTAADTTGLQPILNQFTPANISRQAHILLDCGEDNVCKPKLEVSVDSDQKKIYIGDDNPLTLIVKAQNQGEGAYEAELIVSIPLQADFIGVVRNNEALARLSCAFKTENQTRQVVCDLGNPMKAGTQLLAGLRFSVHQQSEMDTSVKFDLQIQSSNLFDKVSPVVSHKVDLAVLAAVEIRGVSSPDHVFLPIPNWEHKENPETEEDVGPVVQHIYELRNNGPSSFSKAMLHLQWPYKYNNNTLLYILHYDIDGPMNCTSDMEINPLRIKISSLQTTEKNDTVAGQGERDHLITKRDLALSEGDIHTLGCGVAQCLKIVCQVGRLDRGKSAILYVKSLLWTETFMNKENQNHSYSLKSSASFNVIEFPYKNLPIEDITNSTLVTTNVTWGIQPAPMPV
Sequence (P18564 22-709, chain 2 of 2, further chain): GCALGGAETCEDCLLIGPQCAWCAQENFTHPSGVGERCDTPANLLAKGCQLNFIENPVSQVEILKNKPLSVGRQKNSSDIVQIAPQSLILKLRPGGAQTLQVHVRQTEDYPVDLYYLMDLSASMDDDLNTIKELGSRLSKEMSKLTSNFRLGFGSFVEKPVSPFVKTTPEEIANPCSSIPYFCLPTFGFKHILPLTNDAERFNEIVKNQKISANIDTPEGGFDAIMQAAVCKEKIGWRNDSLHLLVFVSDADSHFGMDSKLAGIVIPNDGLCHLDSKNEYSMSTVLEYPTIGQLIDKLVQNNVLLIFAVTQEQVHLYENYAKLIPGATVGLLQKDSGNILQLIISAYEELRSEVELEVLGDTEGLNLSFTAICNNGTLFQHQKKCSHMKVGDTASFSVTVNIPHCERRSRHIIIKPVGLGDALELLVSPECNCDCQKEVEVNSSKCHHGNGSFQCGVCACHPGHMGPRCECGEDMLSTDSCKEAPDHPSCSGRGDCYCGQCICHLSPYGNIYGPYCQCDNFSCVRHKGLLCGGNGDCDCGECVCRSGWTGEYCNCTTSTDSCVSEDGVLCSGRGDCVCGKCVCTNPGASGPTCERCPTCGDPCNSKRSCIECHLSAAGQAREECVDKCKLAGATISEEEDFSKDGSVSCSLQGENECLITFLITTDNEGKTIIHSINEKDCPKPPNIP
Experiment description: saturation binding ELISA
pEC50: −log10 of the molar value.
Each record here notes measured pEC50.
Recorded endpoint: pEC50

Binder: Vel-IPV-Ab1 Coil 111 (antibody, part only; not given: Ab1 heavy and light chains, part only) heavy, part: QGASTSVDELQAEVDQLEDENYAGKTKVAQLRKKVEKLGSIPVSLRSG light, part: QGASTTVAQLEEKVKTLRAENYEFKSEVQRLEEQVAQLGSIPVSLRSG
Recorded endpoint: pEC50
Reported: 6.21

Binder: Vel-IPV-Ab1 Coil 121 (antibody, part only; not given: Ab1 heavy and light chains, part only) heavy, part: QGASTSVDELQAEVDQLEDENYAWKTKVAQLRKKVEKLGSIPVSLRSG light, part: QGASTTVAQLEEKVKTLRAENYEAKSEVQRLEEQVAQLGSIPVSLRSG
Recorded endpoint: pEC50
Reported: 6.85

Binder: Vel-IPV-Ab1 Coil 115 (antibody, part only; not given: Ab1 heavy and light chains, part only) heavy, part: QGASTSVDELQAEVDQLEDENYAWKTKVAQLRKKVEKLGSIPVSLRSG light, part: QGASTTVAQLEEKVKTLRAENYEYKSEVQRLEEQVAQLGSIPVSLRSG
Recorded endpoint: pEC50
Reported: 6.74

Binder: Vel-IPV-Ab1 Coil 129 (antibody, part only; not given: Ab1 heavy and light chains, part only) heavy, part: QGASTSVDELQAEVDQLEDENYASKTKVAQLRKKVEKLGSIPVSLRSG light, part: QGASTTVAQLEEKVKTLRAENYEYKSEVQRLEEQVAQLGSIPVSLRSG
Recorded endpoint: pEC50
Reported: 7.12
